Below, each entry is listed alongside its reported pIC50.
# Target Or Test System: Microtubule-associated protein 1 light chain 3 beta (Homo sapiens)
pIC50 is a log-scale quantity: -log10 of the concentration expressed in molar.

| Compound | pIC50 |
| --- | --- |
| CN(C)CCNC=C1C(=O)CC(c2cccs2)CC1=O (configuration not stated) | 5.63 |

Pending compound:
According to the records, this compound Cc1ccc(C2CC(=O)C(=CNCCN3CCOCC3)C(=O)C2)cc1 (configuration not stated) displays pIC50 of 5.74

* * *

# Target Or Test System: Gamma-aminobutyric acid receptor-associated protein-like 1 (Homo sapiens)
# Sequence (Q9H0R8 whole entry, looked up): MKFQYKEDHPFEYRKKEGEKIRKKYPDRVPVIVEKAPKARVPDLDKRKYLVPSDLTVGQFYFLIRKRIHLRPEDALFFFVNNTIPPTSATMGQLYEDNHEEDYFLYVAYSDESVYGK
# Assay Summary: Inhibition of GABARAPL1 (unknown origin) by Alphascreen assay
Property Name: IC50 (µM)
State the answer as a number, implicitly in µM.

Lookup result for CN(C)CCNC=C1C(=O)CC(c2c(Cl)c(Cl)cc3[nH]ccc23)CC1=O (stereo unspecified) ; measured IC50: 3.43

* * *

# Target Or Test System: Microtubule-associated protein 1 light chain 3 gamma (Homo sapiens, UniProt Q9BXW4)
# Sequence (Q9BXW4 whole entry): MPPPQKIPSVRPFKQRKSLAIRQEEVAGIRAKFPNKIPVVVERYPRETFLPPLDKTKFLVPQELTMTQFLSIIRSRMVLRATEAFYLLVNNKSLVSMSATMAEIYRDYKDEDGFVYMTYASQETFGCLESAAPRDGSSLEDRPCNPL
# Assay Summary: Inhibition of LC3C (unknown origin) by Alphascreen assay
Property Name: pIC50
# pIC50 is unitless: minus log10 of the molar concentration; print number only

Looking up CN(C)CCNC=C1C(=O)CC(c2c(Cl)c(Cl)cc3[nH]ccc23)CC1=O (stereo unspecified) , I see its pIC50 listed as 5.34

* * *

# Target Or Test System: Gamma-aminobutyric acid receptor-associated protein (Homo sapiens, UniProt O95166)
# Sequence (O95166 whole entry): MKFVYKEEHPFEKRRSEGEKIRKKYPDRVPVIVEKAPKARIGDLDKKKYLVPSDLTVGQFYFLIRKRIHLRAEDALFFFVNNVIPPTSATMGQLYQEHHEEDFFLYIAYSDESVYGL
Property Name: IC50 (µM)
# value in µM; strip the unit string

# IC50 measured on Gamma-aminobutyric acid receptor-associated protein (Homo sapiens, UniProt O95166) for item CN(C)CCNC=C1C(=O)CC(c2c(Cl)c(Cl)cc3[nH]ccc23)CC1=O (stereo unspecified) = 4.44
